# TARGET_DESC: T1, APBA1_2, Q02410
# T1 sequence (Q02410 742-832, limits assumed, looked up): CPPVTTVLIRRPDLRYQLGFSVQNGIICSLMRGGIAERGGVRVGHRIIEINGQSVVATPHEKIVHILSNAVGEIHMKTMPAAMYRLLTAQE
# PROCEDURE_DETAILS: holdup assay
# Parameters: key: below the threshold = too weak to quantify, mostly under pKd 3.1 to 4
# STATED_CONDITIONS: plain residues with an end cap or a label only (N-terminal biotin on a linker: ttds)

| BINDER | pKd |
| --- | --- |
| QRQARSETLV [HPV59-E6, Q81964] | below the threshold |
| RLQRRRETQV [HPV18-E6, P06463] | below the threshold |
| SKPTRRETEV [HPV35-E6, P27228] | below the threshold |
| RLPKIKETTV [FRMPD4, Q14CM0] | below the threshold |
